Data credit: the RNAGym collection of RNA variant scans (doi:10.1073/pnas.2313332121)

Kindly supply the reported polymerase ribozyme fitness (log ratio) values for the records listed here.
B1: TPR t1 (parent)
chain: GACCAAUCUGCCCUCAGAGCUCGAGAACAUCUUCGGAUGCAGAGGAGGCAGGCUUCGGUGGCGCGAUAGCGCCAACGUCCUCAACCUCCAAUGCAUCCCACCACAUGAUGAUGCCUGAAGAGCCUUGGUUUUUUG

# Variants of: B1
# method notes: polymerase ribozyme fitness, log enrichment relative to wild type (log ratio); higher = more active; in vitro selection for triplet polymerase activity

Qu. Bench note: what polymerase ribozyme fitness (log ratio) did GACCAAUCUGCCCUCAGAGCUCGAGAACAUCUUCGGAUGCAGAGGAGGCAGGCUUCGGUAGCGCGAUAGCGCCAACGUCCUCAACCUCCAAUGCAUCCCACCACAUGAUGAUGCCGGAAGAGCCUUGGUUUUUUG [G60A U116G] show?
Ans. -2.22

Qu. Bench note: what polymerase ribozyme fitness (log ratio) did GACCAUUCUGCCCUCAGAGCUCGAGAACAUCUUCGGAUGCAGAGGAGGCAGGCUUCGGUGGCGCGAUAGCACCAACGUCCUCAACCUCCAAUGCAUCCCACCACAUGAUGAUGCCUGAAGAGCCUUGGUUUUUUG [A6U G71A] show?
Ans. -0.461

Qu. Bench note: what polymerase ribozyme fitness (log ratio) did GACCAACCUGCCCUCAGAGCUCGAGAACAUCUUCGGAUGCAGAGGAGGCAGGCUUCGGUGGCGCGCUAGCGCCAACCUCCUCAACCUACAAUGCAUCCCACCACAUGAUGAUGCCUGAAGAGCCUUGGUUUUUUG [U7C A66C G77C C88A] show?
Ans. -2.34

Qu. Bench note: what polymerase ribozyme fitness (log ratio) did GACCAAUCUGCCCUCAGAGCUCGAGAACAUCUUAGUAUGCAGAGGAGGCAGGCUUCGGUGGCGCGAUAGCGCCAACGUCCUCAACCUCCAAUGCAUCCCACCACAUGAUGAUGCCUGAAGAGCCUUGGUUUUUUG [C34A G36U] show?
Ans. -4.2

Qu. Bench note: what polymerase ribozyme fitness (log ratio) did GACCAAUCUGCCCUCAGAGCUCGAGAACAUCUUCGGAUGCAGAGGAGGCAGGCUUCGGUGGCGCGAUAGCGACAACGUCCUUAACCUCCAAUGCAUCCCACCACAUGAUGAUGCCUGAAGAGCCUUGGUUUUUUG [C72A C82U] show?
Ans. 0.305

Qu. Bench note: what polymerase ribozyme fitness (log ratio) did GACCAGUCUGGUCUCAGAGCUCGAGAACAUCUUCGGAUGGAGAUGAGGCAGGCUUCGGUGGCGCGAUAGCGCCAACGUCCUCAACCUCCAAUACAUCCCACCACAUGAUGAUGCCUGAAGAGCCUUGGUUUUUUG [A6G C11G C12U C40G G44U G93A] show?
Ans. -2.75

Qu. Bench note: what polymerase ribozyme fitness (log ratio) did GACCAAUCUGCCCUCAGAGCUCGAGAACAUCUUCGGAUGCAGAGGAGGCCGGCUCCGGUGGCGCGAUAGCGCCAACGUCCUCAACCUCCAAUGCAUCCCACCACAGGAUGAUGCCUGAAGAGCCUUGGUUUUUUG [A50C U55C U106G] show?
Ans. -2.2

Qu. Bench note: what polymerase ribozyme fitness (log ratio) did GACCAAUCUGCCCUCAGAGCUCGAGAACAUCUUCGGAUGCAGAGGAGGCAGGCUUCGGUGGCGCGAUAGCGCGAACGUCAUCAACCUCCAAUGCAUCCCACCACAUGAUGAUGCCUGAAGAGCCUUGGUUUUUUG [C73G C80A] show?
Ans. -4.88

Qu. Bench note: what polymerase ribozyme fitness (log ratio) did GACCAAUCGGCCCUCAGAGCUCGAGAACAUCUUCGGAUGCAGAGGAGGCAGGCUUCGGUGGCGCGAUAGCGCCAACGUCCUCAACCUCCAAUGCAUCCCACCACAUGAUGAUACCUGAAGAGCCUUGGUUUUUUG [U9G G113A] show?
Ans. -0.0202

Qu. Bench note: what polymerase ribozyme fitness (log ratio) did GACCAAUCUGCAAUCAGAGCUCGAGAACAUCUUCGGAUGCAGAGGAGGCAGGCUUCGGUGGCGCGAUAGCGUCAACGUCCUCAACCUCCAACGCAUCCCACCACAUGAUGAUGCCUAAAGUGUCUUGGUUUUUUG [C12A C13A C72U U92C G117A A121U C123U] show?
Ans. -1.56

Qu. Bench note: what polymerase ribozyme fitness (log ratio) did GACCAAUCUGCCCUCAGAGCUCGAGAACAUCUUCGGAUGCAGAGGAGGCAGGCGUCGGUGGCGCGAUAGCGCCAACGUCCUCAACCUCCAAUGCAUCCCACCACAUUAUGAUGCCUGAAGAGCCUUGGUUUUUUG [U54G G107U] show?
Ans. -5.37
